# Tested on: Vero E6 cells
# condition: cytotoxicity counter-assay, Vero E6 cells without virus
Parameter: % Cytotox. Scope: all listed entries.
Your answer should be a number followed by the unit of measure.

1) OC(CNc1ccccc1)Cn1c2ccc(Br)cc2c2cc(Br)ccc21 (stereo not drawn) : 54.5%
2) O=S(=O)(c1cccc2c(I)cccc12)N1CCCNCC1 : 20.3%
3) Cc1ncc(NC(=O)c2cccc(C(F)(F)F)c2)cc1-c1cnc(OC2CCOCC2)c(N2CCOCC2)c1 : 56.6%
4) CC(C)C[C@H]1C(=O)O[C@H](Cc2ccc(N3CCOCC3)cc2)C(=O)N(C)[C@@H](CC(C)C)C(=O)O[C@H](C)C(=O)N(C)[C@@H](CC(C)C)C(=O)O[C@H](Cc2ccc(N3CCOCC3)cc2)C(=O)N(C)[C@@H](CC(C)C)C(=O)O[C@H](C)C(=O)N1C [Emodepside] : 32.2%
5) COc1cc(C(=O)NC(=N)Nc2ccc(C)c(NC(=O)c3ccc(-c4ccccc4)cc3)c2)cc(OC)c1OC : 37.9%

Problem: # input compound: CC(=O)OC1[C@H]2[C@@H](C[C@@H](C)[C@@H]3C=CC(=O)[C@@]13C)OC(=O)[C@@H]2C (stereo partly drawn) ; wanted: its % Cytotox
Solution: 44.4%
